Attribute: IC50
- target.under.test: LCK (Homo sapiens, UniProt P06239)
- Sequence (P06239 whole entry): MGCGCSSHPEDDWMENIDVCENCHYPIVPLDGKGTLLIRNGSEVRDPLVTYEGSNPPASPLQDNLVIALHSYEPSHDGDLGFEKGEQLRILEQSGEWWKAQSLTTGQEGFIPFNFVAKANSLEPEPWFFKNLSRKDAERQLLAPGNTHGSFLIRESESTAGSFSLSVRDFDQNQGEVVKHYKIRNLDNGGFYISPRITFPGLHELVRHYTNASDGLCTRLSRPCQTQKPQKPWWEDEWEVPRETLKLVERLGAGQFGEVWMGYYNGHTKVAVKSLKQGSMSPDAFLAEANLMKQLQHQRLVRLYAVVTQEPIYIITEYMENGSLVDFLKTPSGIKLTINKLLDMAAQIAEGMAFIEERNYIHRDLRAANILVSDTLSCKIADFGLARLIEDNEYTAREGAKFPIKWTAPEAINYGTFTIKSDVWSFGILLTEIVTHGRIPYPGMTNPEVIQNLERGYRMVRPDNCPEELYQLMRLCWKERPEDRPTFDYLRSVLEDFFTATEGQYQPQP
- run.description: Inhibition of a panel of kinases, in vitro HotSpot kinase assay: LCK
- Type: biochemical
- settings: D-compounds panel data; 1 μM ATP; read-out: IC50 LCK

Here's what some known entries look like.
[
  {
    "compound": "C[C@@H]1[C@H](NC(=O)c2ccc(C(C)(C)C)s2)CCCN1c1cnc(C(N)=O)c(Nc2cnn(C)c2)n1",
    "target.under.test": "LCK (Homo sapiens, UniProt P06239)",
    "IC50": "10 to 100 nM"
  },
  {
    "compound": "C[C@H]1CC[C@@H](NC(=O)N(C)C)CN1c1cnc(C(N)=O)c(Nc2cnn(C)c2)n1",
    "target.under.test": "LCK (Homo sapiens, UniProt P06239)",
    "IC50": "1000 to 10000 nM"
  },
  {
    "compound": "C[C@@H]1[C@H](NC(=O)c2ccc(C(C)(C)O)cc2)CCCN1c1nnc(C(N)=O)c(Nc2cnn(C)c2)n1",
    "target.under.test": "LCK (Homo sapiens, UniProt P06239)",
    "IC50": "10 to 100 nM"
  },
  {
    "compound": "C[C@@H]1CC[C@H](NC(=O)c2ccc(C3CC3)cc2)CN1c1cnc(C(N)=O)c(Nc2ccc(N3CCN(C)CC3)cc2)n1",
    "target.under.test": "LCK (Homo sapiens, UniProt P06239)",
    "IC50": "10 to 100 nM"
  }
]

# evaluate next
Tell me its IC50 given C[C@@H]1[C@H](NC(=O)c2ccc(C3CC3)cc2)CCCN1c1cnc(C(N)=O)c(Nc2ccc(N3CCN(C)CC3)c(F)c2)n1 as the entry.
10 to 100 nM

---

- target.under.test: EGFR (Homo sapiens, UniProt P00533)
- Sequence (P00533 25-1210): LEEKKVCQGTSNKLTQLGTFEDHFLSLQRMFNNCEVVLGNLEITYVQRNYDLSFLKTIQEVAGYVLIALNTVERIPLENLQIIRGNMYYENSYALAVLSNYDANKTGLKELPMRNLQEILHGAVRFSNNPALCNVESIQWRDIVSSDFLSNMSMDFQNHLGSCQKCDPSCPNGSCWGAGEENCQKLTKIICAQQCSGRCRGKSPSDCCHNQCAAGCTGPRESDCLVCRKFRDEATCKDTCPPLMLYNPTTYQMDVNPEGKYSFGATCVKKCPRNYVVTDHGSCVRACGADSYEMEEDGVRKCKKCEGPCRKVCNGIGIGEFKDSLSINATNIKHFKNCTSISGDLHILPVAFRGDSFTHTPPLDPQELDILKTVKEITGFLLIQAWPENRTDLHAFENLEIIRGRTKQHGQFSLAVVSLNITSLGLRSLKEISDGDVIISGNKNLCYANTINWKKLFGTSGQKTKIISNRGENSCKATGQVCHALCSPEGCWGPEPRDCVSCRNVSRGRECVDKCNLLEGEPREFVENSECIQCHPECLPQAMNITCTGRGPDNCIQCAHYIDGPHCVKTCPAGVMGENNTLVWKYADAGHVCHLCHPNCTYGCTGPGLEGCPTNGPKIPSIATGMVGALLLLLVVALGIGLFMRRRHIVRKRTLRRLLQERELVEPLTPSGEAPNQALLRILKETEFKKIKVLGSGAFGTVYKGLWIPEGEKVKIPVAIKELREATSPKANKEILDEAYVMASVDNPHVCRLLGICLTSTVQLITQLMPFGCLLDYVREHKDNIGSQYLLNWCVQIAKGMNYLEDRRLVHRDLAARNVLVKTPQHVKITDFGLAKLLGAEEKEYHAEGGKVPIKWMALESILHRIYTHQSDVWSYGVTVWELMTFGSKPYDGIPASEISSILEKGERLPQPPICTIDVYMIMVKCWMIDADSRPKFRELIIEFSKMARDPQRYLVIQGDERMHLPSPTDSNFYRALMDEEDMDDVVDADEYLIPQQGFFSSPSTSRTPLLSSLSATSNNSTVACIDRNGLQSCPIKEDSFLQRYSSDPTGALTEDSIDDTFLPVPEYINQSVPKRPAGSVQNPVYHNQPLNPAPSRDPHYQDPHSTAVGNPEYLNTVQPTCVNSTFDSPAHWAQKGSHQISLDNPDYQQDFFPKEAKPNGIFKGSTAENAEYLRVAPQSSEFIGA
- run.description: Inhibition of a panel of kinases, in vitro HotSpot kinase assay: EGFR
- Type: biochemical
- settings: D-compounds panel data; 1 μM ATP
pIC50: −log10 of the molar value.
readout: pIC50

Here's what some known entries look like.
[
  {
    "molecule": "C[C@@H]1[C@H](NC(=O)c2ccc(C3CC3)cc2)CCCN1c1cnc(C(N)=O)c(Nc2cnn(C3CCOCC3)c2)n1 [Example D-274]",
    "pIC50": "5.00 to 6.00"
  },
  {
    "molecule": "C[C@@H]1[C@H](NC(=O)Nc2cccnc2)CCCN1c1cnc(C(N)=O)c(Nc2ccc(C3(C)CCN(C4CCCC4)CC3)cc2)n1 [Example D-9]",
    "pIC50": "7.00 to 8.00"
  },
  {
    "molecule": "C[C@@H]1[C@H](NC(=O)c2ccc(C3CC3)cc2)CCCN1c1cnc(C(N)=O)c(Nc2ccc(N3CCCCC3)cc2)n1 [Example D-37]",
    "pIC50": "6.00 to 7.00"
  },
  {
    "molecule": "C[C@@H]1[C@H](NC(=O)c2ccc(S(C)(=O)=O)cc2)CCCN1c1cnc(C(N)=O)c(Nc2ccc(N3CCN(C)CC3)cc2)n1 [Example D-227]",
    "pIC50": "6.00 to 7.00"
  },
  {
    "molecule": "Cc1nsc(Nc2nc(N3CCC[C@@H](NC(=O)N(C)C)[C@H]3C)cnc2C(N)=O)c1C [Example D-119]",
    "pIC50": "6.00 to 7.00"
  }
]

Tell me its pIC50 given C[C@@H]1[C@H](NC(=O)c2ccc3c(c2)C(C)(C)CO3)CCCN1c1cnc(C(N)=O)c(Nc2cnn(C)c2)n1 [Example D-55] as the entry.
5.00 to 6.00

Tell me its pIC50 given Cn1cc(Nc2nc(N3CCC(F)(F)[C@H](NC(=O)c4ccc(C5CC5)cc4)C3)cnc2C(N)=O)cn1 [Example D-192] as the entry.
< 5.00

Tell me its pIC50 given C[C@@H]1[C@H](NC(=O)c2ccc3ncsc3c2)CCCN1c1cnc(C(N)=O)c(Nc2cnn(C)c2)n1 [Example D-243] as the entry.
5.00 to 6.00

Tell me its pIC50 given C[C@@H]1[C@H](NC(=O)c2cc(C3CC3)n[nH]2)CCCN1c1cnc(C(N)=O)c(Nc2cnn(C)c2)n1 [Example D-252] as the entry.
6.00 to 7.00
